B1: library; a variant is named by its letters at N, in order (parent)
chain: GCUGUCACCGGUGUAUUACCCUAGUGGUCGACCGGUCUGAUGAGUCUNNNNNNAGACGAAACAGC

- Variants of: B1
- TEST: normalized RNA/DNA level with ligand (relative to sTRSVctl = 100) (log10 (% of sTRSVctl)); ligand: hypoxanthine (xanthine aptamer); higher = less ribozyme self-cleavage, higher mRNA level
- ASSAY_CONTEXT: ligand concentration (+) RNA-Seq: 5 mM, HEK293T, reporter: mCherry (pCS4076), ligand present: yes
MEASURED_METRIC: normalized RNA/DNA level with ligand (log10)
Write the value as a bare number.

biopolymer_sequence="GCUGUCACCGGUGUAUUACCCUAGUGGUCGACCGGUCUGAUGAGUCUACCCCUAGACGAAACAGC [ACCCCU]" experimental_value=1.97
biopolymer_sequence="GCUGUCACCGGUGUAUUACCCUAGUGGUCGACCGGUCUGAUGAGUCUUAGCAUAGACGAAACAGC [UAGCAU]" experimental_value=1.91
biopolymer_sequence="GCUGUCACCGGUGUAUUACCCUAGUGGUCGACCGGUCUGAUGAGUCUCGUUCCAGACGAAACAGC [CGUUCC]" experimental_value=1.98
biopolymer_sequence="GCUGUCACCGGUGUAUUACCCUAGUGGUCGACCGGUCUGAUGAGUCUCGUUCGAGACGAAACAGC [CGUUCG]" experimental_value=1.9
biopolymer_sequence="GCUGUCACCGGUGUAUUACCCUAGUGGUCGACCGGUCUGAUGAGUCUUGUCCCAGACGAAACAGC [UGUCCC]" experimental_value=2
biopolymer_sequence="GCUGUCACCGGUGUAUUACCCUAGUGGUCGACCGGUCUGAUGAGUCUUAUGUGAGACGAAACAGC [UAUGUG]" experimental_value=1.91
biopolymer_sequence="GCUGUCACCGGUGUAUUACCCUAGUGGUCGACCGGUCUGAUGAGUCUGAGUGGAGACGAAACAGC [GAGUGG]" experimental_value=1.59
biopolymer_sequence="GCUGUCACCGGUGUAUUACCCUAGUGGUCGACCGGUCUGAUGAGUCUUCGAUUAGACGAAACAGC [UCGAUU]" experimental_value=1.91
biopolymer_sequence="GCUGUCACCGGUGUAUUACCCUAGUGGUCGACCGGUCUGAUGAGUCUUCCUGGAGACGAAACAGC [UCCUGG]" experimental_value=1.94
biopolymer_sequence="GCUGUCACCGGUGUAUUACCCUAGUGGUCGACCGGUCUGAUGAGUCUCCCUCCAGACGAAACAGC [CCCUCC]" experimental_value=1.95

Which normalized RNA/DNA level with ligand (log10) is listed for GCUGUCACCGGUGUAUUACCCUAGUGGUCGACCGGUCUGAUGAGUCUAAGAGUAGACGAAACAGC [AAGAGU] ? 1.81

What about this variant? GCUGUCACCGGUGUAUUACCCUAGUGGUCGACCGGUCUGAUGAGUCUUGUGCUAGACGAAACAGC [UGUGCU] 1.92

What about this variant? GCUGUCACCGGUGUAUUACCCUAGUGGUCGACCGGUCUGAUGAGUCUCGGCAAAGACGAAACAGC [CGGCAA] 1.88

What about this variant? GCUGUCACCGGUGUAUUACCCUAGUGGUCGACCGGUCUGAUGAGUCUCUGAUCAGACGAAACAGC [CUGAUC] 1.98

What about this variant? GCUGUCACCGGUGUAUUACCCUAGUGGUCGACCGGUCUGAUGAGUCUAAAUGUAGACGAAACAGC [AAAUGU] 1.87

Measured values drawn from the supplement of paper PMC6757056 for this set.
